- ASSAY: Drug concentration in serum and tissues by LC-MS, pharmacokinetics and BBB permeability
- Assay type: in vivo, mice
- SETTINGS: C57BL/6, mouse, intravenous; 15 mg/kg i.v.; Sham brain; 1 h; mean ± SD; read-out: concentration in Sham brain
ASSAY READOUT: concentration at 1 h (ng/g)
The response must be a number in ng/g with no trailing unit.

Query: Given the compound O=C(CCN1CCN(Cc2ccccc2)CC1)Nc1nc(-c2ccccc2)cs1 , what is its reported concentration at 1 h?
Reply: 1580

* * *

- ASSAY: Drug concentration in serum and tissues by LC-MS, pharmacokinetics and BBB permeability
- Format: in vivo, mice
- SETTINGS: C57BL/6, mouse, intravenous; 15 mg/kg i.v.; Sham brain; 5 min; mean ± SD; read-out: concentration in Sham brain
ASSAY READOUT: concentration at 5 min (ng/g)
The response must be a number in ng/g with no trailing unit.

Query: Given the compound O=C(CCN1CCN(Cc2ccccc2)CC1)Nc1nc(-c2ccccc2)cs1 , what is its reported concentration at 5 min?
Reply: 6230

* * *

- ASSAY: Drug concentration in serum and tissues by LC-MS, pharmacokinetics and BBB permeability
- Format: in vivo, mice
- SETTINGS: C57BL/6, mouse, intravenous; 15 mg/kg i.v.; heart; 2 h; mean ± SD; read-out: concentration in heart
ASSAY READOUT: concentration at 2 h (ng/g)
The response must be a number in ng/g with no trailing unit.

Query: Given the compound O=C(CCN1CCN(Cc2ccccc2)CC1)Nc1nc(-c2ccccc2)cs1 , what is its reported concentration at 2 h?
Reply: 684

* * *

- ASSAY: Drug concentration in serum and tissues by LC-MS, pharmacokinetics and BBB permeability
- Format: in vivo, mice
- SETTINGS: C57BL/6, mouse, iv; 15 mg/kg i.v.; serum; mean ± SD; read-out: AUC0–6 h
ASSAY READOUT: AUC(0-t) (ng·h/mL)
The response must be a number in ng·h/mL with no trailing unit.

Query: Given the compound O=C(CCN1CCN(Cc2ccccc2)CC1)Nc1nc(-c2ccccc2)cs1 , what is its reported AUC(0-t)?
Reply: 919

* * *

- ASSAY: Drug concentration in serum and tissues by LC-MS, pharmacokinetics and BBB permeability
- Format: in vivo, mice
- SETTINGS: C57BL/6, mouse, ipsilateral ischemic hemisphere (IL brain), intravenous; 15 mg/kg i.v. at reperfusion 1 h after MCAO; ipsilateral ischemic hemisphere; 2 h; mean ± SD; read-out: concentration in IL brain
ASSAY READOUT: concentration at 2 h (ng/g)
The response must be a number in ng/g with no trailing unit.

Query: Given the compound O=C(CCN1CCN(Cc2ccccc2)CC1)Nc1nc(-c2ccccc2)cs1 , what is its reported concentration at 2 h?
Reply: 327

* * *

- ASSAY: Drug concentration in serum and tissues by LC-MS, pharmacokinetics and BBB permeability
- Type: in vivo, mice
- SETTINGS: C57BL/6, mouse, iv; 15 mg/kg i.v.; serum; read-out: t1/2 (elimination half-life) (converted)
ASSAY READOUT: half-life (min)
The response must be a number in min with no trailing unit.

Query: Given the molecule O=C(CCN1CCN(Cc2ccccc2)CC1)Nc1nc(-c2ccccc2)cs1 , what is its reported half-life?
Reply: 22.8

* * *

- ASSAY: Drug concentration in serum and tissues by LC-MS, pharmacokinetics and BBB permeability
- Assay type: in vivo, mice
- SETTINGS: C57BL/6, mouse, intravenous; 15 mg/kg i.v.; heart; 30 min; mean ± SD; read-out: concentration in heart
ASSAY READOUT: concentration at 30 min
Lab note: write values as number then unit, every time.

Query: Given the compound O=C(CCN1CCN(Cc2ccccc2)CC1)Nc1nc(-c2ccccc2)cs1 , what is its reported concentration at 30 min?
Reply: 4730 ng/g

* * *

- ASSAY: Drug concentration in serum and tissues by LC-MS, pharmacokinetics and BBB permeability
- Format: in vivo, mice
- SETTINGS: C57BL/6, mouse, contralateral non-ischemic hemisphere (CL brain), iv; 15 mg/kg i.v.; CL brain; read-out: t1/2 (elimination half-life) (converted)
- Experimental: The mice were intravenously injected with 15 mg/kg TJ-5 at the time of reperfusion 1 h after MCAO or Sham. The mice were then anesthetized at 5 min, 10 min, 30 min, 1 h, and 2 h, or 6 h post-dosing. […] The time-concentration curve, area under the curve (AUC), and pharmacokinetic (PK) parameters of TJ-5 were analyzed using the PKslover 2.0 PK software ([Zhang et al., 2010]). BBB permeability was evaluated using the brain-to-serum partition coefficient (Kp), which was calculated as AUCbrain/AUCserum.
ASSAY READOUT: half-life

Query: Given the compound O=C(CCN1CCN(Cc2ccccc2)CC1)Nc1nc(-c2ccccc2)cs1 [TJ-5] , what is its reported half-life?
Reply: 24.6 min

* * *

- ASSAY: Drug concentration in serum and tissues by LC-MS, pharmacokinetics and BBB permeability
- Format: in vivo, mice
- SETTINGS: C57BL/6, mouse, intravenous; 15 mg/kg i.v.; serum; 30 min; mean ± SD; read-out: concentration in serum
ASSAY READOUT: concentration at 30 min (ng/mL)
The response must be a number in ng/mL with no trailing unit.

Query: Given the molecule O=C(CCN1CCN(Cc2ccccc2)CC1)Nc1nc(-c2ccccc2)cs1 , what is its reported concentration at 30 min?
Reply: 472

* * *

- ASSAY: Drug concentration in serum and tissues by LC-MS, pharmacokinetics and BBB permeability
- Type: in vivo, mice
- SETTINGS: C57BL/6, mouse, intravenous; 15 mg/kg i.v.; serum; 10 min; mean ± SD; read-out: concentration in serum
- Description: The mice were intravenously injected with 15 mg/kg TJ-5 at the time of reperfusion 1 h after MCAO or Sham. The mice were then anesthetized at 5 min, 10 min, 30 min, 1 h, and 2 h, or 6 h post-dosing. […] The time-concentration curve, area under the curve (AUC), and pharmacokinetic (PK) parameters of TJ-5 were analyzed using the PKslover 2.0 PK software ([Zhang et al., 2010]). BBB permeability was evaluated using the brain-to-serum partition coefficient (Kp), which was calculated as AUCbrain/AUCserum.
ASSAY READOUT: concentration at 10 min (ng/mL)
The response must be a number in ng/mL with no trailing unit.

Query: Given the compound O=C(CCN1CCN(Cc2ccccc2)CC1)Nc1nc(-c2ccccc2)cs1 , what is its reported concentration at 10 min?
Reply: 980

* * *

- ASSAY: Drug concentration in serum and tissues by LC-MS, pharmacokinetics and BBB permeability
- Assay type: in vivo, mice
- SETTINGS: C57BL/6, mouse, intravenous; 15 mg/kg i.v.; Sham brain; 2 h; mean ± SD; read-out: concentration in Sham brain
ASSAY READOUT: concentration at 2 h
Lab note: write values as number then unit, every time.

Query: Given the compound O=C(CCN1CCN(Cc2ccccc2)CC1)Nc1nc(-c2ccccc2)cs1 , what is its reported concentration at 2 h?
Reply: 268 ng/g

* * *

- ASSAY: Drug concentration in serum and tissues by LC-MS, pharmacokinetics and BBB permeability
- Format: in vivo, mice
- SETTINGS: C57BL/6, mouse, intravenous; 15 mg/kg i.v.; liver; 2 h; mean ± SD; read-out: concentration in liver
ASSAY READOUT: concentration at 2 h (ng/g)
The response must be a number in ng/g with no trailing unit.

Query: Given the compound O=C(CCN1CCN(Cc2ccccc2)CC1)Nc1nc(-c2ccccc2)cs1 [TJ-5] , what is its reported concentration at 2 h?
Reply: 750

* * *

- ASSAY: Drug concentration in serum and tissues by LC-MS, pharmacokinetics and BBB permeability
- Format: in vivo, mice
- SETTINGS: C57BL/6, mouse, intravenous; 15 mg/kg i.v.; liver; 5 min; mean ± SD; read-out: concentration in liver
ASSAY READOUT: concentration at 5 min
Lab note: write values as number then unit, every time.

Query: Given the compound O=C(CCN1CCN(Cc2ccccc2)CC1)Nc1nc(-c2ccccc2)cs1 , what is its reported concentration at 5 min?
Reply: 7160 ng/g

* * *

- ASSAY: Drug concentration in serum and tissues by LC-MS, pharmacokinetics and BBB permeability
- Assay type: in vivo, mice
- SETTINGS: C57BL/6, mouse, intravenous; 15 mg/kg i.v.; heart; 1 h; mean ± SD; read-out: concentration in heart
ASSAY READOUT: concentration at 1 h (ng/g)
The response must be a number in ng/g with no trailing unit.

Query: Given the compound O=C(CCN1CCN(Cc2ccccc2)CC1)Nc1nc(-c2ccccc2)cs1 [TJ-5] , what is its reported concentration at 1 h?
Reply: 1660

* * *

- ASSAY: Drug concentration in serum and tissues by LC-MS, pharmacokinetics and BBB permeability
- Assay type: in vivo, mice
- SETTINGS: C57BL/6, mouse, intravenous; 15 mg/kg i.v.; liver; 10 min; mean ± SD; read-out: concentration in liver
ASSAY READOUT: concentration at 10 min
Lab note: write values as number then unit, every time.

Query: Given the molecule O=C(CCN1CCN(Cc2ccccc2)CC1)Nc1nc(-c2ccccc2)cs1 , what is its reported concentration at 10 min?
Reply: 5890 ng/g
